- Protocol notes: Serum pharmacokinetics after 500 mg oral bolus of 13C5-C3G (HPLC-ESI-MS/MS, non-compartmental analysis)
- Format: in vivo, humans
- Cond: male, human, serum, po, 500 mg; single 500 mg oral 13C5-C3G, healthy men; mean ± SEM of participants in whom detected
Recorded log10 Cmax for the following molecules
Scale: log10; quantity: Cmax; unit before log: nM

Molecule | log10 Cmax
OCC1OC(Oc2cc3c(O)cc(O)cc3[o+]c2-c2ccc(O)c(O)c2)C(O)C(O)C1O (stereo not drawn) [Cyanidin-3-glucoside, 6,8,10,3′,5′-^13C5-cyanidin-3-glucoside] | 2.15
COC(=O)c1ccc(O)c(O)c1 [Methyl-3,4-dihydroxybenzoate] | 1.08
O=C(O)c1ccc(O)c(O)c1 [Protocatechuic acid (PCA), Protocatechuic acid] | 2.17
O=C(O)CNC(=O)c1ccccc1 [Hippuric acid] | 3.29
O=Cc1c(O)cc(O)cc1O [Phloroglucinaldehyde] | 2.76
O=C(O)c1ccc(O)c(OC2OC(C(=O)O)C(O)C(O)C2O)c1 (stereo not drawn) [PCA-3-glucuronide] | 1.04
COc1cc(C(=O)O)ccc1O [Vanillic acid (VA), Vanillic acid] | 3.26
O=Cc1ccc(O)cc1 [4-Hydroxybenzaldehyde] | 2.82

Attention now turns to another entry.
So what does the record say about log10 Cmax for O=C(O)c1ccc(OC2OC(C(=O)O)C(O)C(O)C2O)cc1 (stereo not drawn) [Benzoic acid-4-glucuronide] ? 1.87

----------
- Protocol notes: Faecal recovery after 500 mg oral bolus of 13C5-C3G
- Assay type: in vivo, humans
- Cond: faeces, 24–48 h; 500 mg oral 13C5-C3G; mean ± SEM
Marks after values point to notes of the source that are not given here.
Measurement type: Recovery 24–48 h

Below, each entry is followed by its recorded Recovery 24–48 h result.
Compound | Recovery 24–48 h
O=Cc1c(O)cc(O)cc1O [Phloroglucinaldehyde] | 111.3 ± 78.7 ^f μg
COc1ccc(C(=O)O)cc1OS(=O)(=O)O [IsoVA-3-sulfate] | 176.1 ± 174.7 ^h μg
O=C(O)c1ccc(OC2OC(C(=O)O)C(O)C(O)C2O)c(O)c1 (centres unmarked) [PCA-4-glucuronide] | 20.4 ± 16.2 ^i μg

So what does the record say about Recovery 24–48 h for COc1cc(C(=O)O)ccc1OC1OC(C(=O)O)C(O)C(O)C1O (centres unmarked) [VA-4-glucuronide] ? 9.5 ± 7.9 ^g μg

Similarly, COc1cc(C(=O)O)ccc1O [Vanillic acid (VA), Vanillic acid] ? 49.3 ± 21.4 ^g μg

----------
- Protocol notes: Urinary elimination/recovery after 500 mg oral bolus of 13C5-C3G
- Type: in vivo, humans
- Cond: urine; single 500 mg oral 13C5-C3G; mean ± SEM
Recorded log10 of Maximum concentration for the following compounds
Scale: log10; quantity: Maximum concentration; unit before log: nM

Below, each entry is followed by its recorded log10 of Maximum concentration result.
Compound | log10 of Maximum concentration
O=C(O)c1ccc(OC2OC(C(=O)O)C(O)C(O)C2O)cc1 (stereo not drawn) [Benzoic acid-4-glucuronide] | 2.11
O=C(O)CNC(=O)c1ccccc1 | 3.73
O=C(O)c1ccc(OS(=O)(=O)O)c(O)c1 [PCA-4-sulfate] | 3.09
COC(=O)c1ccc(O)c(O)c1 [Methyl-3,4-dihydroxybenzoate] | 2.03

So what does the record say about log10 of Maximum concentration for COc1cc(C(=O)O)ccc1OC1OC(C(=O)O)C(O)C(O)C1O (stereo not drawn) [VA-4-glucuronide] ? 2.88

Similarly, COc1ccc(C(=O)O)cc1O ? 2.33

The measurements presented in this section are drawn from paper PMC4080980.
